Source of measurements: patent US20250250357A1

# TESTED TARGET: T1, human MSLN-FL-his protein (human, UniProt Q13421 296-580)
# T1 construct: also called human MSLN full-length protein; hMSLN-FL-his; not shown: His tag
# T1 sequence (Q13421 other isoform, or with tags, fused parts or gaps): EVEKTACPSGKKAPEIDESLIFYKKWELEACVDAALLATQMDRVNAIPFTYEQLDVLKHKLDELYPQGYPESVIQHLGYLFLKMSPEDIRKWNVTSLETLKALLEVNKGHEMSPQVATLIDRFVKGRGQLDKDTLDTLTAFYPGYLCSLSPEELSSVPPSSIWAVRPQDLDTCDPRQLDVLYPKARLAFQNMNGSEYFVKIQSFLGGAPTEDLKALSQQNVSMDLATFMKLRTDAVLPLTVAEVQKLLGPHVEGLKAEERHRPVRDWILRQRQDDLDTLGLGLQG
# MEASUREMENT NOTES: ELISA, coated antigen; antibody 10 nM
ENDPOINT: OD450

Would you kindly share the measured OD450 for S009-F6-76.1 (antibody, human IgG1, kappa, V domains shown, Human-murine chimeric antibody, human IgG1/kappa constant regions) VH: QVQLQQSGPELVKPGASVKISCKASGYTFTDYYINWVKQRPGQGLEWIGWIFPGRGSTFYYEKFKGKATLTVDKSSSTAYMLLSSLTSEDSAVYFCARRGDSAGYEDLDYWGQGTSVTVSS VL: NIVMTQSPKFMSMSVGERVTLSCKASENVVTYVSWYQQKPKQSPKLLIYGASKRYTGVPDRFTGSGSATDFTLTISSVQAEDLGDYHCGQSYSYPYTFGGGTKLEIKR ?
2.87 OD450
